# experiment.summary: Toxicity liver stage against HepG2, at 10uM
# Type: cell-based
# Parameters: test concentration 10 uM, cell line HepG2-A16-CD81EGFP
# study.conditions: human, HepG2-A16-CD81EGFP cells; read-out: INHIBITION
Property: cytotoxicity at 10 µM; scope: individual compounds
// return numeric value only (unit: %, not printed)

Some solved cases for reference:
compound	unit.text	cytotoxicity at 10 µM
Cc1nc(N(C)C)cc(C2(C)CCNCC2)n1	%	-6.07
CCN(C)c1ccc(CNC(=O)c2cc(C(N)=O)cs2)cc1F	%	6.36
c1cc(N2CCCCC2)ccc1-c1noc(CN2CCOCC2)n1	%	-1.59
CC1=Nc2c(c(=O)[nH]n2C(C)C)C(c2cccc(OC(F)F)c2)S1 (stereo unspecified)	%	8.13
COCC1CN(S(C)(=O)=O)Cc2ncn(CC3CC3)c21 (stereo unspecified)	%	1.68
O=C(c1ccco1)N1CC[C@@H]2CN(C3CCOCC3)CCO[C@@H]2C1	%	-112
CC(NCCN1CCN(C(=O)C2CCCC2)CC1)c1cnn(C)c1 (stereo unspecified)	%	-4.59
Clc1ccc(CN(CCN2CCOCC2)Cc2cccnc2)cc1Cl	%	-9.96
CCc1nc(CN2CCCN(CC(O)c3ccccc3)CC2)no1 (stereo unspecified)	%	-14
Cc1cc(CNC(=O)C2CCCCN2C(=O)OC(C)(C)C)no1 (stereo unspecified)	%	4.91

As a next step, examine the compound that follows.
Exam item: State, in one line, measured cytotoxicity at 10 µM of `O=C1OCCN1CCNc1ncc2c(n1)CCN2c1ccccc1`
Marked response: -4.95

---

Property: cytotoxicity at 10 µM; scope: individual compounds
# experiment.summary: Toxicity liver stage against HepG2, at 10uM
# Format: cell-based
# Set-up: test concentration 10 uM, cell line HepG2-A16-CD81EGFP
# study.conditions: human, HepG2-A16-CD81EGFP cells; read-out: INHIBITION
// return numeric value only (unit: %, not printed)

Some solved cases for reference:
compound	unit.text	cytotoxicity at 10 µM
O=C(C1CC1)N1CC[C@H](c2nnc(Cc3c[nH]c4ccccc34)o2)C1	%	4.09
Cc1nc(C)n(CCCNc2ncnc3onc(C)c23)n1	%	-7.12
CCOc1cccc(NCc2cnc(N3CCN(C)CC3)nc2)n1	%	1.75

Exam item: State, in one line, measured cytotoxicity at 10 µM of `CCN(CC)C(=O)Cn1ccc2cc(NC(C)=O)ccc21`
Marked response: -10.2

Exam item: State, in one line, measured cytotoxicity at 10 µM of `CCOCC(=O)N1CCc2nc(C)nc(NC(C)C)c2CC1`
Marked response: -98.7

Exam item: State, in one line, measured cytotoxicity at 10 µM of Cn1cc(CC2CCN(C(=O)NCCc3cccc(O)c3)C2)cn1 (stereo unspecified)
Marked response: 1.05

Exam item: State, in one line, measured cytotoxicity at 10 µM of `Cc1cc(C(=O)N[C@H]2CN(CCC(N)=O)C[C@@H]2C2CC2)sc1C`
Marked response: 8.28

Exam item: State, in one line, measured cytotoxicity at 10 µM of `Cc1noc(C)c1CN1CC2(CCN(Cc3c[nH]cn3)CC2)CC1=O`
Marked response: 8.62

Exam item: State, in one line, measured cytotoxicity at 10 µM of NC(=O)C1CCCN(c2ccc(CNC(=O)c3csnn3)cc2)C1 (stereo unspecified)
Marked response: -2.18

Exam item: State, in one line, measured cytotoxicity at 10 µM of `NC(=O)Cn1cc(NC(=O)N2CCSCC2)cn1`
Marked response: -9.95

Exam item: State, in one line, measured cytotoxicity at 10 µM of `O=C(c1ccc(S(=O)(=O)NCc2ccncc2)cc1)N1CCNCC1`
Marked response: 2.3

Every entry's value here was drawn from ChEMBL document CHEMBL4513216.
